B1: SNAP91 (parent)
chain: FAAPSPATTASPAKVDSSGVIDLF

Variants of: B1
EXPERIMENT_SUMMARY: protein stability index of a GFP-peptide fusion (GPS, HEK-293T) (PSI 1-6); higher = more stable;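 also: lentivirally expressed fusions sorted by FACS into six bins by GFP to DsRed ratio, PSI derived from sequencing read proportions per bin multiplied by bin number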
CONDITION_DETAILS: c terminus: a fixed tail appended
MEASURED_ENDPOINT: protein stability index
# output: bare number, no unit

Would you please look over these solved cases?
>>> print(df.to_string())
   variant_descriptor        measured_endpoint   val
0                V15I  protein stability index  2.24
1                 T8Q  protein stability index  2.54
2                S17R  protein stability index  2.27
3                V20T  protein stability index  2.51
4                S17G  protein stability index  2.33
5                 T9G  protein stability index  2.28

QUERY: # query: protein stability index of entry D16L
RESULT: 2.6

QUERY: Looking for the measured protein stability index of I21C , can you help?
RESULT: 2.63

QUERY: // protein stability index lookup, key: A10Y
RESULT: 1.72
